Tested on: OVCAR-3 ovarian
Experiment: NCI tumour cell line growth inhibition, 48 h
quantity measured: TGI

compound=CN(C)c1ccc(/C=c2/c3cc([N+](=O)[O-])ccc3n3c2cc(-c2ccccc2)[n+]3C)cc1 reading="5.48 µM"
compound=COC(=O)[C@]12CC[C@@H](C)[C@H](C)[C@@H]1C1=CC[C@@H]3[C@@]4(C)CC(=O)[C@H](OC(=O)c5ccco5)[C@@]5(C)COC(=C45)C[C@@]3(C)[C@]1(C)CC2 reading="> 100 µM"
compound=C=C1c2nc3ccccc3n2C=C(c2ccc(OC)cc2)N1c1ccc(OCCN2CCOCC2)cc1 reading="> 100 µM"
compound=CN(C)CCNc1nc2ccccc2c2c(=O)c3ccccc3sc12 reading="5.46 µM"
compound="CC(=O)O[C@H]1CC[C@H]2[C@@H]3CCC(C(C)=O)[C@H](C(=O)O)[C@H]3CC[C@]12C (stereo partly drawn)" reading="> 100 µM"
compound=COc1ccc(C2=NOP(c3ccccc3)(c3ccccc3)(c3ccccc3)C2)cc1 reading="> 85.5 µM"
compound=O=C1N[C@@H](COc2ccc(C=Nc3ccc(CCc4ccc(N=Cc5ccc(OC[C@@H]6COC(=O)N6)cc5)cc4)cc3)cc2)CO1 reading="> 100 µM"
compound="C=CC(Br)(CBr)CCC(Br)C(C)C (stereo not drawn)" reading="8.9 µM"

---

Test system: M14 melanoma
Assay: NCI tumour cell line growth inhibition, 48 h; in the data active = GI50 below about 0.43 µM; inactive = the rest
Possible outcomes: true = active, false = inactive

molecule="Nc1c(C(=O)Nc2cccc(Br)c2)sc2nc3c(cc12)C(O)CCC3 (centres undefined)" class_name=true
molecule=Cn1ccnc1C[N-]Cc1nccn1C.O=[N+]([O-])[O-].O=[N+]([O-])[O-].[Cu+2] class_name=false
molecule=Cn1ncc(-c2ccc3c(=O)[nH]nc(CN)c3c2)c1-c1c(F)cc2ccccc2c1C#N class_name=false
molecule=N#Cc1cccc(OCc2ccccc2COc2cccc(C#N)c2)c1 class_name=false
molecule=ClCC#CCSc1ncnc2c1ncn2CC#CCCl class_name=false
molecule=Cc1cc(S(=O)(=O)Nc2nc3cc(Cl)ccc3o2)c(SCc2ccccc2)cc1Cl class_name=false
molecule="COc1cc([C@@H]2c3cc4c(cc3C(OC3O[C@@H]5COC(C)O[C@H]5[C@H](O)[C@H]3O)C3COC(=O)[C@@H]32)OCO4)cc(OC)c1O (some centres undefined)" class_name=false
molecule=COc1cccc(C2=C(c3cn(C)c4cccc(OC)c34)C(=O)NC2=O)c1 class_name=false
molecule="CC(=O)C1(O)Cc2c(O)c3c(c(O)c2C(OC2CC(N)C(O)C(C)O2)C1)C(=O)c1ccccc1C3=O (centres undefined)" class_name=true

---

System: BT-549 breast
Experiment: NCI tumour cell line growth inhibition, 48 h
Each record here notes measured TGI.
quantity measured: TGI (µM)

smiles_structure=C=CCCC(=O)N1C=CC(=O)[C@H](O)[C@@H]1/C=C/c1ccccc1 qualifier=> reading=32.5
smiles_structure=COc1cc(-c2nn(-c3ccc(NC(=O)c4cc(Cl)cc(Cl)c4)cc3)cc2-c2ccncc2)ccc1Cl qualifier=> reading=100
smiles_structure=CC(=O)N1CCN(CCOc2ccc(C3CCN(C4=Nn5c(nnc5C(F)(F)F)CC4)CC3)cc2)CC1 qualifier=> reading=100
smiles_structure=N#Cc1cccc(OCc2ccccc2COc2cccc(C#N)c2)c1 qualifier== reading=93.3
smiles_structure=Cc1c(C(=O)O[C@H]2[C@@H]3[C@H](C)CC[C@H]3[C@]3(C)O[C@@]2(C2CCCCC2)C[C@H]3OC(=O)CO)ccc2ccccc12 qualifier== reading=12.7

---

Each record here notes measured TGI.
Tested on: U251 CNS
Experiment: NCI tumour cell line growth inhibition, 48 h
quantity measured: TGI

molecule=CN(C)CCNc1nc(-c2cccs2)cc(-c2cccs2)n1 quantity_measured=TGI reading="24.4 µM"
molecule=COc1cc2c(c(OC)c1OC)-c1ccc(SC)cc1C(=O)CC2 quantity_measured=TGI reading="> 100 µM"
molecule=C1CC[N-]CC1.CC(=N\O)/C(C)=N/O.CC(=N\O)/C(C)=N/O.[CH2-]CCN1CCOCC1.[Co+2] quantity_measured=TGI reading="> 100 µM"
molecule=Nc1ccc(C(=O)N/C(=C\c2cccc([N+](=O)[O-])c2)c2nc3c4c(ccc3[nH]2)C(=O)c2ccccc2C4=O)cc1 quantity_measured=TGI reading="> 100 µM"
molecule=ClCC#CCSc1ncnc2c1ncn2CC#CCCl quantity_measured=TGI reading="3.04 µM"
molecule=Cc1cc(C)c(N=Nc2c(O)c(S(=O)(=O)O)cc3cc(S(=O)(=O)O)ccc23)cc1C quantity_measured=TGI reading="> 100 µM"
molecule=C=CCN1CCC2(CC1)NC(=O)c1ccccc1O2 quantity_measured=TGI reading="> 100 µM"
molecule=COC(=O)Cc1nc2ccccc2o1 quantity_measured=TGI reading="> 100 µM"
molecule=Cc1cc(O)c(C(C)C)cc1N=Cc1ccccc1O quantity_measured=TGI reading="14.6 µM"
molecule=CCCn1c(N)c(C(=O)CNc2ccc(I)cc2)c(=O)[nH]c1=O quantity_measured=TGI reading="> 48.9 µM"
molecule="C=CCC(SC)C1=C(C)C(=O)c2ccccc21 (stereo unspecified)" quantity_measured=TGI reading="> 10 µM"

---

System: NCI-H23 lung
Assay: NCI tumour cell line growth inhibition, 48 h
quantity measured: TGI

compound=O=C(Nc1cc(-c2cccnc2)nc(NCCCN2CCOCC2)n1)c1cc(Br)cc(C(F)(F)F)c1 quantity_measured=TGI reading="15 µM"
compound=CC(=O)n1ccc2c(Cl)ncnc21 quantity_measured=TGI reading="> 100 µM"
compound="CCCC1(N)CC(OC)OC(C)C1O (stereo unspecified)" quantity_measured=TGI reading="> 100 µM"
compound=CCOC(=O)/N=c1/nc(N(C)C)ss1 quantity_measured=TGI reading="> 100 µM"
compound=C=C1c2nc3ccccc3n2C=C(c2ccc(OC)cc2)N1c1ccc(OCCN2CCOCC2)cc1 quantity_measured=TGI reading="> 100 µM"
compound=NS(=O)(=O)c1ccc(NC(=O)Nc2ccccc2F)cc1 quantity_measured=TGI reading="> 100 µM"
compound=COc1ccc(C(=O)O/N=C2/CCC/C2=C\c2ccccc2)cc1 quantity_measured=TGI reading="> 100 µM"
compound=Cn1ccnc1C[N-]Cc1nccn1C.O=[N+]([O-])[O-].O=[N+]([O-])[O-].[Cu+2] quantity_measured=TGI reading="> 100 µM"
compound=N=C(N)SCCc1ccccn1 quantity_measured=TGI reading="> 100 µM"
compound="CC1CN=C(c2ccc(COc3ccc(C4=NCC(C)N4)cc3)cc2)N1 (stereo unspecified)" quantity_measured=TGI reading="> 100 µM"
compound=Oc1ccc(Cl)cc1-c1cc(-c2ccc(F)cc2)n[nH]1 quantity_measured=TGI reading="4.09 µM"

---

Each record here notes measured GI50.
System: MALME-3M melanoma
Assay: NCI tumour cell line growth inhibition, 48 h
quantity measured: GI50

compound=Cc1cc(S(=O)(=O)Nc2nc3cc(Cl)ccc3o2)c(SCc2ccccc2)cc1Cl quantity_measured=GI50 reading="19.3 µM"
compound=COc1ccc2[nH]c(O)c(/C=c3/cc4c(c(-c5ccc(F)cc5)n3)=Nc3ccccc3-4)c2c1 quantity_measured=GI50 reading="2.4 µM"
compound=CCc1nc(-n2c(-c3ccccc3)nc3ccccc3c2=O)nc(N)c1-c1ccc(Cl)cc1 quantity_measured=GI50 reading="23.9 µM"
compound="COc1cc(C2c3cc4c(cc3[C@@H](Nc3ccc(N)cc3)C3COC(=O)[C@H]23)OCO4)cc(OC)c1O (some centres undefined)" quantity_measured=GI50 reading="0.849 µM"
compound=O=[N+]([O-])c1cc(F)c2cccnc2c1O quantity_measured=GI50 reading="3.89 µM"
compound=C=CCCC(=O)N1C=CC(=O)[C@H](O)[C@@H]1/C=C/c1ccccc1 quantity_measured=GI50 reading="9.61 µM"
compound=Cc1c(C(=O)O[C@H]2[C@@H]3[C@H](C)CC[C@H]3[C@]3(C)O[C@@]2(C2CCCCC2)C[C@H]3OC(=O)CO)ccc2ccccc12 quantity_measured=GI50 reading="7.24 µM"
compound=O=C1c2ccn(CCCCN3CCC(O)CC3)c2C(=O)c2c1c(O)c1ccccc1c2O quantity_measured=GI50 reading="16.5 µM"
compound="OC(COc1cccc2ccccc12)CN1CCN(c2ccccc2Cl)CC1 (centres undefined)" quantity_measured=GI50 reading="10.3 µM"

---

Tested on: DU-145 prostate
Experiment: NCI tumour cell line growth inhibition, 48 h
quantity measured: TGI

molecule=Cc1ncc([N+](=O)[O-])n1CCNC(=O)CCCCCn1ccnc1[N+](=O)[O-] reading="> 100 µM"
molecule=O=C1N[C@@H](COc2ccc(C=Nc3ccc(CCc4ccc(N=Cc5ccc(OC[C@@H]6COC(=O)N6)cc5)cc4)cc3)cc2)CO1 reading="> 100 µM"
molecule=COc1cc2c(cc1OCCCCCOc1cc3c(cc1OC)C(=O)N1CCC[C@H]1CN3)N=C[C@@H]1CCCN1C2=O reading="> 100 µM"
molecule=C#CCN(Cc1nc2cc(C(F)(F)F)ccc2nc1-c1ccccc1)c1ccc(F)c(F)c1 reading="> 100 µM"
molecule=CN1B(c2ccccc2)N(C)C(=O)N(C)C1=O reading="> 100 µM"
molecule=c1ccc2nc(OCCN3CC3)ccc2c1 reading="28 µM"
molecule=CCOC(=O)/C(C#N)=C/Nc1ccc(-c2nc3ccccc3[nH]2)cc1 reading="> 100 µM"
molecule=CC(C)(C)C(=O)OCc1nc2cc3c(cc2c(=O)[nH]1)CCC3=O reading="> 100 µM"
molecule=N#Cc1cccc(OCc2ccccc2COc2cccc(C#N)c2)c1 reading="99.1 µM"
molecule=COc1ccccc1NS(=O)(=O)c1ccc2ncn(NS(=O)(=O)c3ccc(Cl)cc3)c(=O)c2c1 reading="> 100 µM"
molecule="CO[C@H](C(=O)O)[C@@H]1Cc2cc3cc(OC4CC(OC5CC(O)C(O)C(C)O5)C(O)C(C)O4)c(C)c(O)c3c(O)c2C(=O)[C@H]1OC1CC(OC2CC(OC3CC(C)(O)C(O)C(C)O3)C(O)C(C)O2)C(O)C(C)O1 (some centres not stated)" reading="> 32.5 µM"
molecule="C#CCCCC(=O)N(C(=O)CS(=O)CC)c1ccccc1 (configuration not stated)" reading="> 100 µM"
